Numbers sourced from patent US11415579B2.

STUDY TARGET: human cyclin-dependent kinase 2 (Cdk2) (Homo sapiens, UniProt P24941)
Construct: poly-histidine; made in house; host or cells: E. coli
TEST METHOD NOTES: Kinetic thiol consumption assay with wild type Cdk2 (C177)
Type: binding
MEASUREMENT CONTEXT: model thiol glutathione
Source text: A library of 120 acrylamides was screened against a) human cyclin-dependent kinase 2 (Cdk2, which contains one surface exposed cysteine residue—C177), prepared by cloning cDNA into the pRSETA bacterial expression vector to generate a poly-histidine tagged Cdk2 fusion that was purified from E. coli using standard techniques, and b) a model thiol (specific details are given below). […] Fluorescence measurements were normalized against a DMSO/thiol only control and plotted against time. […]

>  <MOLECULE>
C=CC(=O)N1CCCCCC1c1cccnc1 (stereo not drawn) [EL-1059]

>  <k(Cdk2)/k(GSH) rate enhancement>
0.3244

$$$$
>  <MOLECULE>
C=CC(=O)N1CCN(S(C)(=O)=O)CC1c1ccccc1 (stereo not drawn) [EL-1160]

>  <k(Cdk2)/k(GSH) rate enhancement>
0.4129

$$$$
>  <MOLECULE>
C=CC(=O)NC1C2CC3CC(C2)CC1C3 (stereo not drawn) [CA-055]

>  <k(Cdk2)/k(GSH) rate enhancement>
0.2881

$$$$
>  <MOLECULE>
C=CC(=O)Nc1ccc(-c2ncccn2)cc1 [CA-037]

>  <k(Cdk2)/k(GSH) rate enhancement>
3.293

$$$$
>  <MOLECULE>
C=CC(=O)N1CCC2CCC(C1)N2C (stereo not drawn) [CA-143]

>  <k(Cdk2)/k(GSH) rate enhancement>
0.3805

$$$$
>  <MOLECULE>
C=CC(=O)N(CC(=O)NC1CC1)C1CC1 [CA-031]

>  <k(Cdk2)/k(GSH) rate enhancement>
0.4081

$$$$

###

STUDY TARGET: Cdk2[C177A, F80C, K278C] (Homo sapiens, UniProt P24941, C177A/F80C/K278C)
Construct: poly-histidine; made in house; host or cells: E. coli
TEST METHOD NOTES: Kinetic thiol consumption assay with mutant Cdk2 as model thiol
Format: binding
Set-up: unit not given here
MEASUREMENT CONTEXT: 500 μM ligand, 5 μM thiol, phosphate buffer pH 8
Note to self: values exactly at 0.02 are rule met. So Rate constant with Cdk2[C177A, F80C, K278C] (k(Cdk2_mut)) at or above 0.02 is rule met, below is rule not met.

>  <COMPOUND>
C=CC(=O)N1CCCC2(CCCc3ccccc32)C1 (centres unmarked) [CA-084]

>  <GROUP LABEL>
rule not met

$$$$
>  <COMPOUND>
C=CC(=O)Nc1ccc(C(=O)c2ccccc2)cc1 [CA-219]

>  <GROUP LABEL>
rule met

$$$$
>  <COMPOUND>
C=CC(=O)N1CC2CN(Cc3ccccc3)CC2C1 (centres unmarked) [CA-207]

>  <GROUP LABEL>
rule not met

$$$$
>  <COMPOUND>
C=CC(=O)Nc1cccc(C(F)(F)F)c1 [EL-1007]

>  <GROUP LABEL>
rule met

$$$$
>  <COMPOUND>
C=CC(=O)N1CCCCCC1C/C=C/c1ccccc1 (centres unmarked) [CA-096]

>  <GROUP LABEL>
rule not met

$$$$
>  <COMPOUND>
C=CC(=O)N(C(=O)C=C)c1c2ccccc2n2c(C)nc3ccccc3c12 [CA-152]

>  <GROUP LABEL>
rule met

$$$$
>  <COMPOUND>
C=CC(=O)Nc1ccccc1C(=O)c1ccccc1 [EL-1004]

>  <GROUP LABEL>
rule met

$$$$
>  <COMPOUND>
C=CC(=O)Nc1cccc(C(F)(F)F)c1 [BN-80]

>  <GROUP LABEL>
rule met

$$$$
>  <COMPOUND>
C=CC(=O)NCCc1c[nH]c2ccccc12 [EL-1174]

>  <GROUP LABEL>
rule not met

$$$$
>  <COMPOUND>
C=CC(=O)NCc1ccc(OC)cc1 [BN-63]

>  <GROUP LABEL>
rule not met

$$$$
>  <COMPOUND>
C=CC(=O)N1CCN(C(=O)OCC)CC1c1cccs1 (centres unmarked) [EL-1121]

>  <GROUP LABEL>
rule not met

$$$$
>  <COMPOUND>
C=CC(=O)N1CCC(c2nnc3n2CCC3)CC1 [CA-106]

>  <GROUP LABEL>
rule not met

$$$$
>  <COMPOUND>
C=CC(=O)N1CCCCCC1c1ccc(N(C)C)cc1 (centres unmarked) [EL-1140]

>  <GROUP LABEL>
rule not met

$$$$
>  <COMPOUND>
C=CC(=O)NC1C2C3CCC(C3)C12 (centres unmarked) [CA-097]

>  <GROUP LABEL>
rule not met

$$$$
>  <COMPOUND>
C=CC(=O)NCCCN(C(=O)C1CCC1)C1CC1 [CA-060]

>  <GROUP LABEL>
rule not met

$$$$
>  <COMPOUND>
C=CC(=O)NCCc1c(-c2ccccn2)[nH]c2ccc(F)cc12 [EL-1084]

>  <GROUP LABEL>
rule not met

$$$$
>  <COMPOUND>
C=CC(=O)N1CCN(C(=O)OC(C)(C)C)c2ccccc21 [EL-1157]

>  <GROUP LABEL>
rule met

$$$$
>  <COMPOUND>
C=CC(=O)N1CC2CCN(Cc3ccccc3)C2C1 (centres unmarked) [CA-190]

>  <GROUP LABEL>
rule not met

$$$$
>  <COMPOUND>
C=CC(=O)NC(C)c1ccc2c(c1)OCO2 (centres unmarked) [EL-1051]

>  <GROUP LABEL>
rule not met

$$$$
